Entries and their growth
- System: SF-295 CNS
- assay method text: NCI-60 one-dose screen, 48 h (100 = growth as untreated, 0 = no growth, -100 = all killed)
- assay setup: 10 µM unless noted
This is part of a sample that, as a whole, favours compounds with a hit. Of some 83,000 tested, about 20% had one in any assay.
Kindly provide the numeric value in % only, without the unit symbol.

Look over these answered cases.
- compound: "CCCCCCC(=O)NC1=C(N2CC2)C(=O)C(NC(=O)CCCCCC)=C(N2CC2)C1=O"
  value unit: "%"
  growth: 29.7
- compound: "CN(C)C(=O)Oc1ccccc1"
  value unit: "%"
  growth: 103
- compound: "O=C1NC(=O)C(=Cc2cn(C(=O)c3ccccc3)c3ccccc23)C(=O)N1"
  value unit: "%"
  growth: 116
- compound: "C=CCCCN=C=S"
  value unit: "%"
  growth: 92.4
- compound: "Cc1cc(N(CCCl)CCCl)ccc1C=Nc1cccnc1"
  value unit: "%"
  growth: 36.7
- compound: "COc1cc(/C=N/C2=C(C#N)C(c3ccco3)c3c(c4cc(C)ccc4oc3=O)O2)cc(OC)c1OC (stereo unspecified)"
  value unit: "%"
  growth: 92.2
- compound: "COC(=O)[C@H](Cc1ccccc1)NC(=O)c1csc([C@@H](C[C@H](C(C)C)N(C)C(=O)[C@@H](NC(=O)[C@H]2CCCCN2C)C2CC2)OC(C)=O)n1"
  value unit: "%"
  growth: 3.79
- compound: "COC1CC2c3ccccc3C1C(C)=[N+]2C (stereo unspecified)"
  value unit: "%"
  growth: 94.2

Which value of growth has been reported for `C=CC[n+]1ccc(-c2cc[n+](CC=C)cc2)cc1` in the records?
101

What does the record list as growth for CC12CCC3C(C=CC4=C(N)C(=O)CCC43C)C1CCC2=O (stereo unspecified) ?
105

Which value of growth has been reported for `CC(=O)O[C@H]1CC[C@H]2[C@@H]3CC=C4c5nc(-c6ccccc6)sc5CC[C@]4(C)[C@H]3CC[C@]12C` in the records?
-0.49
